Entries below carry reported IC50 on Cathepsin S (Homo sapiens, UniProt P25774).
Sequence (P25774 whole entry): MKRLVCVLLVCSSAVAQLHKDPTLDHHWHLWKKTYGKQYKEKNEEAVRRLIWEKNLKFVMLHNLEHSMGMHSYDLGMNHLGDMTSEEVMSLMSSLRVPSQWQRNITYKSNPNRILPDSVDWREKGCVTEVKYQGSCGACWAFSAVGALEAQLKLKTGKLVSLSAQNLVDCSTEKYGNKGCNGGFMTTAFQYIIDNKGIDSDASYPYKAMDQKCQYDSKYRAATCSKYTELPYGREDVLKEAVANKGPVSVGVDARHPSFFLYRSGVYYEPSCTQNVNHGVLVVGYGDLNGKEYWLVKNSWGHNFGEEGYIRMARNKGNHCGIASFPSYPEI
Response body: numeric value in nM, unit text excluded.

The following compounds have reported results that may help.
| Compound | Units label | Obs value |
| --- | --- | --- |
| N#Cc1ccccc1N1CCN(CC(Cn2nc(-c3ccc(I)cc3)c3c2CCN(C(N)=O)C3)OC(N)=O)CC1 (centres undefined) | nM | 20 |
| COc1ccccc1N1CCN(CCCCn2nc(-c3ccc(Cl)cc3)c3c2CCN(C(C)=O)C3)CC1 | nM | 9500 |
| CC(=O)N1CCc2c(c(-c3ccc(Cl)cc3)nn2CC(O)CN2CCN(C(c3ccc(F)cc3)c3ccc(F)cc3)CC2)C1 (centres undefined) | nM | 1000 |

Consider the additional compound presented here.
Measured IC50 (Cathepsin S (Homo sapiens, UniProt P25774)), entry CC(=O)N1CCc2c(c(-c3ccc(Cl)cc3)nn2CC(O)CN2CCN(c3ccccc3Cl)CC2)C1 (centres undefined) : 1000
